Data provenance: the supplement of paper PMC9732359

# Experiment summary: protein stability index of a GFP-peptide fusion (yeast GPS) (PSI 1-4); higher = more stable; sorted into four equal gates, so the index is relative within each strain
# Measurement setup: san1∆
Readout kind: protein stability index

GSFKVVKGTNISEKDLV [RPO31] : 3.51
LSQVYPTLVRSVISGNL [CSN12] : 2.83
INAQGEEIVVVASADYE [PRP8] : 2.78
ILEDDFAVALKNEPDYS [CDC53] : 3.24
SLLNLLNISPFTFGLTV [RPP0] : 1.56
SHDKKTKCSTVVKASEL [SRP14] : 3.05
NDWQMLEMLKPCVEDGF [RPB2] : 3.06
LKRFPKMSVTCNAQPIT [BRR2] : 2.02
LRNWEELNIIPRDLLRV [PRP28] : 1.39
KERTKSLEHELKRSTEL [YIL149C/MLP2] : 2.47
YQLNGVAPFMIKYEFNG [YMR129W/POM152] : 2.62
NFASGDNNTASNMLGSN [RPB3] : 3
LIKAKNFLVFQGDVEQI [SMC1] : 2.41
QFSYLSSTLGIDLEDIK [PCI8] : 1.71
LIVDTHVQFRLGNVDAF [PRP8] : 2.32
TPNTNSNSTPNANQQFL [SWI1] : 2.93
LCRQGHNMLNLLIHRKG [PRP8] : 2.31
NSCFSDGSQQNLQQDKT [REC8] : 2.18
EAVIDEKLEVIADELMK [ITC1] : 3.21
ESEYREFESELKNVEET [ESC2] : 3.2
NRQVMHKMGVERSSKRL [SIR3] : 3.46
KNFKGIEEIEYNVKNII [PCI8] : 3.11
DLKEGLQDLSRYSRQFI [GRR1] : 3.02
KEYELLTLQEDYIKDEQ [RPT3] : 3.19

====

Known protein stability index of a selection of sequences
# Experiment summary: protein stability index of a GFP-peptide fusion (yeast GPS) (PSI 1-4); higher = more stable; sorted into four equal gates, so the index is relative within each strain
# Measurement setup: san1∆
Readout kind: protein stability index

QDKIELSEEETLLVIRR [SNF2] : 2.92
DLKSKGLIPADATFAGH [FAS1] : 3.07
QTLGLESFTEELSNELS [MED1] : 3.06
GNIQISEYNFLEGSVSL [DIS3] : 3.05
SIFEDAIKELNYNRIAK [NUT1] : 3.07
SRENNSEYMVFGKLAFP [YJL039C/NUP192] : 2.97

====

# Experiment summary: protein stability index of a GFP-peptide fusion (yeast GPS) (PSI 1-4); higher = more stable; sorted into four equal gates, so the index is relative within each strain
# Measurement setup: doa10∆
Rule: protein stability index of 3 or more gives criterion met; anything lower gives criterion not met.

DRSASRAVFLFRCKETH [RPC82] : criterion not met
TTLDAEKVFTQGLNILE [FAS1] : criterion met
DNTVRTSANGIVQFTYG [RPO31] : criterion not met
SLFHTAVSVANGFMHAG [RPN2] : criterion not met
NENPINKIMTNQINSFW [NUT1] : criterion not met
QDKDAIRKQPDDIINND [SIR2] : criterion not met
NKSTSSEAEYSKDIETL [YIL149C/MLP2] : criterion met
EKAKSAGTQSSKFSKQQ [RPL24A] : criterion met
DPQPFLKHVLQLIFRQQ [SNU114] : criterion not met
